# Study Target: IgE on basophils of ragweed allergic patients
# Assay Name: cell-based or functional assay
HR40, mean of four patients values by entry
Reply numerically in µg/mL, unit not repeated.

Binder	HR40, mean of four patients, µg/mL
AIC-L (covalent conjugate of Amb a 1 and ISS-containing polynucleotide SEQ ID NO:1, low extent of conjugation) (protein, ragweed, UniProt P27759 26-396, looked up, average of 2-3 oligonucleotides (5' thio ISS oligonucleotide, SEQ ID NO:1) per Amb a 1 molecule, linked through the heterobifunctional linker sSMCC; Amb a 1 blocked with N-ethyl maleimide before activation) AEDLQEILPVNETRRLTTSGAYNIIDGCWRGKADWAENRKALADCAQGFGKGTVGGKDGDIYTVTSELDDDVANPKEGTLRFGAAQNRPLWIIFERDMVIRLDKEMVVNSDKTIDGRGAKVEIINAGFTLNGVKNVIIHNINMHDVKVNPGGLIKSNDGPAAPRAGSDGDAISISGSSQIWIDHCSLSKSVDGLVDAKLGTTRLTVSNSLFTQHQFVLLFGAGDENIEDRGMLATVAFNTFTDNVDQRMPRCRHGFFQVVNNNYDKWGSYAIGGSASPTILSQGNRFCAPDERSKKNVLGRHGEAAAESMKWNWRTNKDVLENGAIFVASGVDPVLTPEQSAGMIPAEPGESALSLTSSAGVLSCQPGAPC	0.0185

Lookup: Which HR40, mean of four patients value is on record for ragweed allergen Amb a 1 (protein, UniProt P27759 26-396, looked up) AEDLQEILPVNETRRLTTSGAYNIIDGCWRGKADWAENRKALADCAQGFGKGTVGGKDGDIYTVTSELDDDVANPKEGTLRFGAAQNRPLWIIFERDMVIRLDKEMVVNSDKTIDGRGAKVEIINAGFTLNGVKNVIIHNINMHDVKVNPGGLIKSNDGPAAPRAGSDGDAISISGSSQIWIDHCSLSKSVDGLVDAKLGTTRLTVSNSLFTQHQFVLLFGAGDENIEDRGMLATVAFNTFTDNVDQRMPRCRHGFFQVVNNNYDKWGSYAIGGSASPTILSQGNRFCAPDERSKKNVLGRHGEAAAESMKWNWRTNKDVLENGAIFVASGVDPVLTPEQSAGMIPAEPGESALSLTSSAGVLSCQPGAPC ?
Found: 0.0003

Lookup: Also need AIC-M (covalent conjugate of Amb a 1 and ISS-containing polynucleotide SEQ ID NO:1, medium extent of conjugation) (protein, ragweed, UniProt P27759 26-396, looked up, average of 3.5 to 4.5 oligonucleotides (5' thio ISS oligonucleotide, SEQ ID NO:1) per Amb a 1 molecule, linked through the heterobifunctional linker sSMCC; Amb a 1 blocked with N-ethyl maleimide before activation) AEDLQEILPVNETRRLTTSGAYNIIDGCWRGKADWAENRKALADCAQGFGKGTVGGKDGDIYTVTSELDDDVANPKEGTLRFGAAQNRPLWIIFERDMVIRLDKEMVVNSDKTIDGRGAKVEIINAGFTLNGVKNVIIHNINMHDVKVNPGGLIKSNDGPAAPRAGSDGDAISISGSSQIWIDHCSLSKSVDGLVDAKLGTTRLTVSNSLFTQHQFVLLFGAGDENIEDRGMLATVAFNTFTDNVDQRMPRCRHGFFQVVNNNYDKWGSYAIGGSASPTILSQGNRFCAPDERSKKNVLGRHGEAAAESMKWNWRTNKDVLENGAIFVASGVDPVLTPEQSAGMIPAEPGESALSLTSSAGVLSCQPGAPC , thanks.
Found: 0.0395
